Target: Mannose-6-phosphate isomerase (Homo sapiens) (UniProt P34949)
Sequence (P34949 whole entry, looked up): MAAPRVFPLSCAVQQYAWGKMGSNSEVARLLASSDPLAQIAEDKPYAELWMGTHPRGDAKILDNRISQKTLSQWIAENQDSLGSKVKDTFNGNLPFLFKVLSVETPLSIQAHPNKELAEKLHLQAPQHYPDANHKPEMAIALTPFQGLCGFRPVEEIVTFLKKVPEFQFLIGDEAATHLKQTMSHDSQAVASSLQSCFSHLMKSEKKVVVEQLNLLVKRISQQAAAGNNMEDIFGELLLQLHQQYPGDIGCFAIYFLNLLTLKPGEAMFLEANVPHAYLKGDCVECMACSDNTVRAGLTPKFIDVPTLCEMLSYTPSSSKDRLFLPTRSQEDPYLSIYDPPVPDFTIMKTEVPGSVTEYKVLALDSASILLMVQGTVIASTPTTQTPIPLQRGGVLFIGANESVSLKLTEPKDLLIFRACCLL
Experiment: MPI inhibition at elevated mannose 6-phosphate – biochemical, fluorescence intensity, high mannose 6-phosphate, primary screen (AID 1220)
Settings: recombinant PMI enzyme, coupled fluorescence intensity; at 20 µM; stronger effect = higher value
The campaign covered roughly 190,000 compounds. About 1,300 (0.68%) were called active. The list comes from a sample in which actives are over-represented; it also holds close analogues and randomly drawn compounds.

compound: Cc1nnc(SCC(=O)c2ccc(C(C)C)cc2)s1
inhibition, %: 7.2
//
compound: Cc1ccc(C)c(NC(=S)/C(=C(\[O-])c2ccc(Cl)s2)[n+]2ccccc2)c1
inhibition, %: 26.5
//
compound: CCOc1ccc(NC(=O)CN2CCN(CC(=O)Nc3ccc4c(c3)OCCO4)CC2)cc1
inhibition, %: -12.8
//
compound: COCCN1CC(=O)N(c2cccc(C)c2C)C(c2ccc(Cl)cc2)C1=O (stereo unspecified)
inhibition, %: -1.2
//
compound: CCCN1C(=O)C(Cc2nc3ccccc3c(=O)n2-c2ccccc2)c2ccccc21 (stereo unspecified)
inhibition, %: 8.6
//
compound: Cc1ccc(CNC(=O)CCc2nc3ccccc3c(=O)[nH]2)cc1
inhibition, %: 2.2
//
compound: COC(=O)C(N)Cc1ccc(O)cc1 (stereo unspecified)
inhibition, %: -2.8
//
compound: Cc1ccc2nc(/C(C#N)=C\c3ccc(N4CCOCC4)o3)[nH]c2c1
inhibition, %: 59.9
//
compound: CC(=O)Cc1nsc(NC(=O)c2ccccc2)n1
inhibition, %: 6.4
//
compound: Cc1ccc(/C(C#N)=C\c2ccc(N3CCOCC3)o2)cc1
inhibition, %: 14.1
//
compound: NC(CO)C(=O)NNCc1ccc(O)c(O)c1O (stereo unspecified)
inhibition, %: 60.4

---

Molecular target: Mannose-6-phosphate isomerase (Homo sapiens) (UniProt P34949)
Experiment: MPI inhibition at elevated mannose 6-phosphate – biochemical, fluorescence intensity, high mannose 6-phosphate, primary screen (AID 1220)
Details: recombinant PMI enzyme, coupled fluorescence intensity; at 20 µM
In all, about 190,000 compounds went through this assay and about 1,300 (0.68%) were called active. No stated cut-off is given here; in the data, active means inhibition above about 50%; inactive means the rest. Only a selection was taken, and actives are over-represented in it overall.
Outcomes: y = active, n = inactive

compound: CCN1C(=O)C(CC(=O)Nc2ccccc2)S/C1=N\c1ccccn1 (stereo not given)
experimental-system: Mannose-6-phosphate isomerase (Homo sapiens) (UniProt P34949)
assigned-label: n
//
compound: CCOc1cc(N2CCOCC2)c(OCC)cc1NC(C)C(=O)N1CCN(CC)CC1 (stereo not given)
experimental-system: Mannose-6-phosphate isomerase (Homo sapiens) (UniProt P34949)
assigned-label: y
//
compound: COc1ccc(Cl)c(NC(=O)Cn2nnc(-c3ccccc3N)n2)c1
experimental-system: Mannose-6-phosphate isomerase (Homo sapiens) (UniProt P34949)
assigned-label: n
//
compound: Cc1ccc(O)c(N=Cc2cccs2)c1
experimental-system: Mannose-6-phosphate isomerase (Homo sapiens) (UniProt P34949)
assigned-label: y
//
compound: CCOc1cc(N2CCOCC2)c(OCC)cc1NC(=O)CN1CCCC(C)C1 (stereo not given)
experimental-system: Mannose-6-phosphate isomerase (Homo sapiens) (UniProt P34949)
assigned-label: n
//
compound: Cc1c(NC(=O)C2CCCO2)cccc1[N+](=O)[O-] (stereo not given)
experimental-system: Mannose-6-phosphate isomerase (Homo sapiens) (UniProt P34949)
assigned-label: n
//
compound: Cc1ccc(C(=O)NCCCNc2ccccc2[N+](=O)[O-])cc1
experimental-system: Mannose-6-phosphate isomerase (Homo sapiens) (UniProt P34949)
assigned-label: n
//
compound: O=C(N/N=C/c1cc(Br)c(Br)o1)C(O)c1ccccc1 (stereo not given)
experimental-system: Mannose-6-phosphate isomerase (Homo sapiens) (UniProt P34949)
assigned-label: n
//
compound: CN(C)c1nc(-c2ccccc2)ncc1S(=O)(=O)c1ccccc1
experimental-system: Mannose-6-phosphate isomerase (Homo sapiens) (UniProt P34949)
assigned-label: n
//
compound: Cc1ccc(O)c(N=CC2=C(O)c3ccccc3C2=O)c1
experimental-system: Mannose-6-phosphate isomerase (Homo sapiens) (UniProt P34949)
assigned-label: n
//
compound: O=C(COc1cccc2c1CCN(Cc1ccc(Cl)cc1)C2=O)N1CCOCC1
experimental-system: Mannose-6-phosphate isomerase (Homo sapiens) (UniProt P34949)
assigned-label: n
//
compound: C/C(CC(=O)N1CCN(C=O)CC1)=N\NC(=O)c1ccc(Cl)cc1
experimental-system: Mannose-6-phosphate isomerase (Homo sapiens) (UniProt P34949)
assigned-label: n
//
compound: CC(=O)Nc1ccc(OCC(O)CN2CCN(c3cc(Cl)ccc3C)CC2)cc1 (stereo not given)
experimental-system: Mannose-6-phosphate isomerase (Homo sapiens) (UniProt P34949)
assigned-label: n
//
compound: O=C(COC(=O)c1ccncc1)Nc1cc(Cl)ccc1Cl
experimental-system: Mannose-6-phosphate isomerase (Homo sapiens) (UniProt P34949)
assigned-label: y
//
compound: CC(=O)c1ccc(-c2cccs2)s1
experimental-system: Mannose-6-phosphate isomerase (Homo sapiens) (UniProt P34949)
assigned-label: n
//
compound: COc1ccc(CC(=O)Nc2ccc(OC)c(NC(=O)c3ccco3)c2)cc1
experimental-system: Mannose-6-phosphate isomerase (Homo sapiens) (UniProt P34949)
assigned-label: n
//
compound: COc1cccc2cc(-c3ccnc(N)n3)oc12
experimental-system: Mannose-6-phosphate isomerase (Homo sapiens) (UniProt P34949)
assigned-label: n
//
compound: Oc1ccc(N=Cc2ccc(-c3cccs3)s2)cc1
experimental-system: Mannose-6-phosphate isomerase (Homo sapiens) (UniProt P34949)
assigned-label: y
//
compound: CCOc1cc(N2CCOCC2)c(OCC)cc1NC(=O)c1ccc(OC(C)C)cc1
experimental-system: Mannose-6-phosphate isomerase (Homo sapiens) (UniProt P34949)
assigned-label: n
//
compound: CCOc1cc(N2CCOCC2)c(OCC)cc1NC(C)C(=O)N1CCC(C)CC1 (stereo not given)
experimental-system: Mannose-6-phosphate isomerase (Homo sapiens) (UniProt P34949)
assigned-label: y
//
compound: CCCCCn1c(=O)[nH]c2c(c1=O)CCC2
experimental-system: Mannose-6-phosphate isomerase (Homo sapiens) (UniProt P34949)
assigned-label: n
//
compound: Cc1ccc(O)c(C=Nc2cc(C)ccc2O)c1
experimental-system: Mannose-6-phosphate isomerase (Homo sapiens) (UniProt P34949)
assigned-label: n
//
compound: COCCCNC(=O)c1cc2cc(Br)ccc2oc1=O
experimental-system: Mannose-6-phosphate isomerase (Homo sapiens) (UniProt P34949)
assigned-label: n
//
compound: CCCCn1c2nc3ccccc3nc2c2c(=O)n(CCC(C)C)cnc21
experimental-system: Mannose-6-phosphate isomerase (Homo sapiens) (UniProt P34949)
assigned-label: n
//
compound: Cc1ccc(NCc2ccccc2)cc1
experimental-system: Mannose-6-phosphate isomerase (Homo sapiens) (UniProt P34949)
assigned-label: n

---

Target: Mannose-6-phosphate isomerase (Homo sapiens) (UniProt P34949)
Assay: MPI inhibition at elevated mannose 6-phosphate – biochemical, fluorescence intensity, high mannose 6-phosphate, primary screen (AID 1220)
Details: recombinant PMI enzyme, coupled fluorescence intensity; at 20 µM
Out of some 190,000 compounds screened, about 1,300 (0.68%) were called active. Rule as the data show it: active = inhibition above about 50%; inactive = the rest. This excerpt belongs to a sample that is enriched for actives.
Outcomes: active, inactive

molecule: O=C(CN1C(=O)c2cccc3cccc(c23)C1=O)N1CCN(c2ccccn2)CC1
assigned-label: inactive
//
molecule: CC(=O)N1CCN(C2=Nc3cccc4cccc2c34)CC1
assigned-label: active
//
molecule: O=C(O)c1ccccc1OC(=O)C12CC3CC(CC(C3)C1)C2
assigned-label: inactive
//
molecule: CC(=O)N1C(=O)/C(=C2\SC(=S)N(NS(=O)(=O)c3ccc(C)cc3)C2=O)c2ccccc21
assigned-label: inactive
//
molecule: c1cc2c3c(cccc3c1)C(N1CCCCCC1)=N2
assigned-label: inactive
//
molecule: CC(C)=C1C2C=CC1C(C(=O)Nc1cccc(C)c1)C2C(=O)O (stereo unspecified)
assigned-label: inactive
//
molecule: O=C1CNC(=O)/C1=C\c1ccc(O)cc1
assigned-label: inactive
//
molecule: Cc1[nH]c2ccccc2c1/C=N/NC(=O)Nc1ccccc1
assigned-label: inactive
//
molecule: Fc1ccc(N2CCN(C3=Nc4cccc5cccc3c45)CC2)cc1
assigned-label: inactive
//
molecule: O=C(CCCN1C(=O)c2cccc3cccc(c23)C1=O)N1CCN(c2ncccn2)CC1
assigned-label: inactive
//
molecule: COCCn1c(C)cc(C(=O)COc2nc3ccccc3nc2C)c1C
assigned-label: inactive

---

Biological target: Mannose-6-phosphate isomerase (Homo sapiens) (UniProt P34949)
Assay: MPI inhibition at elevated mannose 6-phosphate – biochemical, fluorescence intensity, high mannose 6-phosphate, primary screen (AID 1220)
Settings: recombinant PMI enzyme, coupled fluorescence intensity; at 20 µM
The campaign covered roughly 190,000 compounds. About 1,300 (0.68%) were called active. No stated cut-off is given here; in the data, active means inhibition above about 50%; inactive means the rest. For the sample, actives were picked, then their nearest neighbours and some compounds at random.
Outcomes: T (active), F (inactive)

compound: COc1ccc(C(=O)Nc2ccc3c(c2)OCCO3)cc1
assigned-label: F
--
compound: CC1CN(C)C(C)C/C1=N/Oc1ccccc1[N+](=O)[O-] (stereo unspecified)
assigned-label: F
--
compound: COc1ccc(C(=O)CCNc2ccc3c(c2)OCCO3)cc1
assigned-label: T
--
compound: CC1=CC(=O)C=C(C)C1=NOc1ccc([N+](=O)[O-])cc1
assigned-label: T
--
compound: CC1CCCC(NC(=O)COC(=O)CSc2ccc3ccccc3c2)C1C (stereo unspecified)
assigned-label: F
--
compound: CC(NC(=O)CSCc1ccccc1Br)c1ccccc1 (stereo unspecified)
assigned-label: F
